Experiment: CRL1545 cell growth, single agent and combined, cisplatin and BGB IC20 combos (AID 1671464);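 also: cells exposed to compound for 96 hours before readout; 0% = vehicle DMSO and 100% = high DMSO killing control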
Settings: CRL1545 osteosarcoma cells, single agent, at 5 µM, stronger effect = higher value
Experimental endpoint: inhibition
Please answer using a numeric value trailed by its unit.

Problem: For `Cn1cc(-c2cnn3c(N)c(Br)c([C@H]4CCCNC4)nc23)cn1` , what is its reported inhibition?
Result: 92.3%

Problem: And the next one, NC(=O)c1cccc2[nH]c(-c3ccc(C4CCCN4)cc3F)nc12 (centres undefined) ?
Result: 63.4%

Problem: And the next one, `CO[C@H]1/C=C/O[C@@]2(C)Oc3c(C)c(O)c4c(O)c(c5c(c4c3C2=O)=NC2(CCN(CC(C)C)CC2)N=5)NC(=O)/C(C)=C\C=C\[C@H](C)[C@H](O)[C@@H](C)[C@@H](O)[C@@H](C)[C@H](OC(C)=O)[C@@H]1C` ?
Result: -19.7%

Okay, next one:
Problem: For CC1CN(c2c(F)c(N)c3c(=O)c(C(=O)O)cn(C4CC4)c3c2F)CC(C)N1 (centres undefined) , what is its reported inhibition?
Result: 26.7%

###

Assay: drug combination growth inhibition, ovarian cancer – cell-based, oncology-focused library, rucaparib conditional, profiling panel (AID 1508598)
Settings: patient-derived ovarian cancer cells, CellTiter-Glo viability, 144 h; at 0.0195 µM; OCI-C5x cells; with rucaparib 10 µM; stronger effect = lower value; 100% = cells with rucaparib alone
Experimental endpoint: viability (%)
Express your answer in %, writing the number without its unit.

Reference set (4 entries):
Problem: For `Cc1cc([N+](=O)[O-])ccc1NS(=O)(=O)c1cc(Cl)ccc1Cl` , what is its reported viability?
Result: 118

Problem: And the next one, `Cc1[nH]c(C=C2C(=O)Nc3ccc(S(=O)(=O)N(C)c4cccc(Cl)c4)cc32)c(C)c1C(=O)N1CCN(C)CC1` ?
Result: 116

Problem: And the next one, `COc1cccc2c1C(=O)c1c(O)c3c(c(O)c1C2=O)C[C@@](O)(C(=O)CO)C[C@H]3O[C@H]1C[C@H](N)[C@H](O)[C@H](C)O1` ?
Result: 130

Problem: And the next one, `O=C1[C@H](CC[C@H](O)c2ccc(F)cc2)[C@H](c2ccc(O)cc2)N1c1ccc(F)cc1` ?
Result: 109

Okay, next one:
Problem: For `C=CS(=O)(=O)NC1CCN(C(=O)CNc2cc(I)c(Cl)cc2OC)CC1` , what is its reported viability?
Result: 117

###

Assay: drug combination growth inhibition, ovarian cancer – cell-based, oncology-focused library, rucaparib conditional, profiling panel (AID 1508598)
Settings: patient-derived ovarian cancer cells, CellTiter-Glo viability, 144 h; at 0.0195 µM; OCI-P5x cells; with rucaparib 20 µM; 100% = cells with rucaparib alone
Activity calls are given as the source filed them.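 The calls were made as follows: active = normalized viability below 100% at a tested concentration; inactive = the rest.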
Please answer using one outcome listed in y for active, n for inactive

Problem: Please share the test call associated with `CC(C)NCCCn1c(Sc2cc3c(cc2I)OCO3)nc2c(N)ncnc21` .
Result: n

Problem: And the next one, `C[C@@]1(c2nc3c(C(N)=O)cccc3[nH]2)CCCN1` ?
Result: y

Problem: And the next one, CC(=O)O[C@H]1C(=O)[C@@]2(C)C([C@H](OC(=O)c3ccccc3)[C@]3(O)C[C@H](OC(=O)[C@H](O)[C@@H](NC(=O)c4ccccc4)c4ccccc4)C(C)=C1C3(C)C)[C@]1(OC(C)=O)CO[C@@H]1C[C@H]2O (stereo not given in full) ?
Result: y

###

Assay: viability loss with induced miR-34 in A549 – imaging, A549 dox-inducible miR-34, nuclei and caspase counts, primary screen (AID 1347080)
Conditions: A549 miR-34 inducible, Hoechst nuclei count, 48 h; measured here: total cells without miR-34 induction
Numbered stars: 1 amine (or outer) side, 2 acyl side, 3 side chain; on linkers, the order of the positions; unused ones are H or OH. Bridge positions count the residues as written; N and C are the ends. Square brackets hold non-standard residues; d marks the D form. Peptide text beside a SMILES is read from it. * marks the point of attachment. X4 = NC1=N[C@@H]([C@H](N[*:1])C(=O)[*:2])C[C@H](O)N1; ΔAla(Z-3-ureido) = NC(=O)N/C=C(\N)C(=O)O; β3hOrn = NCCC[C@H](N)CC(=O)*; Dap = NC[C@H](N)C(=O)O
Everything with cell count lower than 9000 is condition not met; everything else, including exactly 9000, is condition met.

Consider the worked cases shown below.
Problem: Threshold query (cell count >= 9000) on `CN=C(NC)NCc1ccccc1`
Result: condition met

Problem: And the next one, CN1Cc2sccc2C(c2ccc(O)c(O)c2)C1 (stereo unspecified) ?
Result: condition met

More entries:
Problem: Threshold query (cell count >= 9000) on CCC(C)[C@H](NS(=O)(=O)c1cccc2ccccc12)C(=O)N[C@H](C=O)Cc1c[nH]c2ccccc12 (stereo partly specified)
Result: condition not met

Problem: And the next one, `CN1CC[C@]23c4ccccc4N[C@H]1[C@]21CCN(C)[C@H]3Nc2ccccc21` ?
Result: condition met

Problem: And the next one, `O=c1ccc2c(OCCCCc3ccccc3)c3ccoc3cc2o1` ?
Result: condition not met

Problem: And the next one, `C=C[C@@]1(C)CC(=O)[C@]2(O)[C@@]3(C)[C@H](O)CCC(C)(C)[C@@H]3[C@H](O)[C@H](OC(C)=O)[C@@]2(C)O1` ?
Result: condition not met

Problem: And the next one, `Cc1cc(C(=O)NNCc2ccccc2)no1` ?
Result: condition met

Problem: And the next one, `CCCCCCCCCCCCCCCCOC[C@H](CO)OC(C)=O` ?
Result: condition not met

Problem: And the next one, `COc1cc(CC(=O)O)ccc1O` ?
Result: condition met

Problem: And the next one, C=C1C(CO)C(O)CC1n1cnc2c(=O)[nH]c(N)nc21 (stereo unspecified) ?
Result: condition not met

Problem: And the next one, CCC(C)(C)c1ccc(CC(C)CN2CC(C)OC(C)C2)cc1 (stereo unspecified) ?
Result: condition not met

Problem: And the next one, NCCC[C@H](N)CC(=O)N[C@H]1CNC(=O)[C@H]([C@H]2C[C@H](O)NC(N)=N2)NC(=O)/C(=C/NC(N)=O)NC(=O)[C@H](CO)NC(=O)[C@H](CO)NC1=O (β3hOrn-[Dap]SS[ΔAla(Z-3-ureido)][X4]; lactam 1-C) ?
Result: condition met

Problem: And the next one, `C[C@]12CC[C@@H]3c4ccc(OS(=O)(=O)O)cc4CC[C@H]3[C@@H]1CCC2=O` ?
Result: condition met

Problem: And the next one, `Cc1cc([N+](=O)[O-])ccc1NS(=O)(=O)c1cc(Cl)ccc1Cl` ?
Result: condition not met

Problem: And the next one, `CC(=O)N[C@@H]1[C@@H](O[C@H](C)C(=O)O)[C@H](O)[C@@H](CO)O[C@@H]1O` ?
Result: condition met

Problem: And the next one, `CCSC(N)=Nc1ccc(C(F)(F)F)cc1` ?
Result: condition not met

Problem: And the next one, `O[N+]1=CC=CCC1=S.On1ccccc1=S.[Zn]` ?
Result: condition not met

###

Assay: viability loss with induced miR-34 in A549 – imaging, A549 dox-inducible miR-34, nuclei and caspase counts, primary screen (AID 1347080)
Details: A549 miR-34 inducible, Hoechst nuclei count, 48 h; measured here: total cells without miR-34 induction
Rule: cell count below 9000 gives Yes. Equal to or above 9000 gives No.

Problem: Could you please tell me whether cell count recorded for `CCn1c(N)c(C(=O)NC)c(=O)c2ccc(C#C[C@@](C)(O)COC)nc21` is less than 9000?
Result: Yes

Problem: And the next one, CCC(NC(C)C)C(O)c1ccc(O)c2[nH]c(=O)ccc12 (stereo not given) ?
Result: No

###

Each entry below carries its reported inhibition.
Assay: growth inhibition, single agents and combos, UWB1.289, cell-based, BGB or cisplatin combos, synergistic combos for chromothripsis tumors (AID 1671456);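 also: cells exposed to compound for four days; 0% = vehicle DMSO and 100% = killing by high DMSO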
Settings: UWB1.289 ovarian carcinoma cells, measured here: inhibition with cisplatin combination, at 0.05 µM, stronger effect = higher value
Non-standard residues stand in square brackets, D forms with d. Residues, ends and D or L forms follow the SMILES beside them. Dolaproine = CO[C@@H]([C@@H]1CCCN1)[C@@H](C)C(=O)O; Dil = CC[C@H](C)[C@H](NC)[C@@H](CC(=O)O)OC; NMeV = CN[C@H](C(=O)O)C(C)C
Express your answer in %, writing the number without its unit.

Reference set (2 entries):
Problem: For `CO[C@H]1/C=C/O[C@@]2(C)Oc3c(C)c(O)c4c(O)c(c5c(c4c3C2=O)=NC2(CCN(CC(C)C)CC2)N=5)NC(=O)/C(C)=C\C=C\[C@H](C)[C@H](O)[C@@H](C)[C@@H](O)[C@@H](C)[C@H](OC(C)=O)[C@@H]1C` , what is its reported inhibition?
Result: -0.452

Problem: And the next one, `C[n+]1ccc(-c2c3nc(c(-c4cc[n+](C)cc4)c4ccc([nH]4)c(-c4cc[n+](C)cc4)c4nc(c(-c5cc[n+](C)cc5)c5ccc2[nH]5)C=C4)C=C3)cc1` ?
Result: -10

More entries:
Problem: For `C[C@@H]1O[C@@H](O[C@@H]2[C@@H](O)[C@H](OCCc3ccc(O)c(O)c3)O[C@H](CO)[C@H]2OC(=O)C=Cc2ccc(O)c(O)c2)[C@H](O)[C@H](O)[C@H]1O` , what is its reported inhibition?
Result: -3.75

Problem: And the next one, C=C(C)C1CCC2(C(=O)O)CCC3(C)C(CCC4C5(C)CCC(O)C(C)(C)C5CCC43C)C12 (stereo unspecified) ?
Result: -4.44

Problem: And the next one, CC[C@H](C)[C@@H]([C@@H](CC(=O)N1CCC[C@H]1[C@H](OC)[C@@H](C)C(=O)N[C@@H](Cc1ccccc1)C(=O)O)OC)N(C)C(=O)[C@@H](NC(=O)[C@@H](NC)C(C)C)C(C)C (H-[NMeV]V[Dil][Dolaproine]F-OH) ?
Result: -3.2

Problem: And the next one, `Cn1cnc2[nH]c(=O)[nH]c(=O)c21` ?
Result: -21.4

Data provenance is PubChem BioAssay.
